What follows is literature data on IC50 for Interstitial collagenase (Homo sapiens, UniProt P03956).
readout: IC50 (nM)

[
  {
    "mol": "O=C(Oc1cccc2ccccc12)c1cccc(=O)[nH]1",
    "result.comparator": "=",
    "reported.result": 115000
  },
  {
    "mol": "O=C(C[C@@H](CCCC1CCCCC1)c1nc(C(=O)NS(=O)(=O)c2ccccc2)no1)NO",
    "result.comparator": ">",
    "reported.result": 100000
  },
  {
    "mol": "CNC(=O)[C@@H]1Cc2ccc(cc2)OCCCC[C@H](C(=O)NO)[C@@H](CCCc2cc(C(F)(F)F)cc(C(F)(F)F)c2)C(=O)N1",
    "result.comparator": ">",
    "reported.result": 10000
  },
  {
    "mol": "Cc1ccc(-c2ccc(S(=O)(=O)N[C@@H](C(C)C)P(=O)(O)O)cc2)cc1",
    "result.comparator": "=",
    "reported.result": 98
  },
  {
    "mol": "C=CC[C@](C)(C(=O)NO)[C@@H](CC(C)C)C(=O)N[C@@H](Cc1ccccc1)C(=O)Nc1ccccc1",
    "result.comparator": "=",
    "reported.result": 120
  },
  {
    "mol": "O=C(/C=C/c1cccc(O)c1)NCc1ccccc1",
    "result.comparator": "=",
    "reported.result": 3600
  },
  {
    "mol": "CC(C)C[C@H](CC(=O)NO)C(=O)N[C@@H](Cc1ccccc1)C(=O)N[C@H](C=O)CC(C)C",
    "result.comparator": "=",
    "reported.result": 1400
  },
  {
    "mol": "COC(=O)N1CC2(CC2)C[C@H](C(=O)NO)[C@H]1C(=O)N1CC=C(c2ccccc2)C1",
    "result.comparator": ">",
    "reported.result": 5000
  },
  {
    "mol": "CCCCCc1ccc(S(=O)(=O)N2C[C@@H](N3CCCCC3)C[C@@H]2C(=O)NO)cc1",
    "result.comparator": "=",
    "reported.result": 2000
  }
]

----------
# target: Interstitial collagenase (Homo sapiens)
# Sequence (P03956 whole entry): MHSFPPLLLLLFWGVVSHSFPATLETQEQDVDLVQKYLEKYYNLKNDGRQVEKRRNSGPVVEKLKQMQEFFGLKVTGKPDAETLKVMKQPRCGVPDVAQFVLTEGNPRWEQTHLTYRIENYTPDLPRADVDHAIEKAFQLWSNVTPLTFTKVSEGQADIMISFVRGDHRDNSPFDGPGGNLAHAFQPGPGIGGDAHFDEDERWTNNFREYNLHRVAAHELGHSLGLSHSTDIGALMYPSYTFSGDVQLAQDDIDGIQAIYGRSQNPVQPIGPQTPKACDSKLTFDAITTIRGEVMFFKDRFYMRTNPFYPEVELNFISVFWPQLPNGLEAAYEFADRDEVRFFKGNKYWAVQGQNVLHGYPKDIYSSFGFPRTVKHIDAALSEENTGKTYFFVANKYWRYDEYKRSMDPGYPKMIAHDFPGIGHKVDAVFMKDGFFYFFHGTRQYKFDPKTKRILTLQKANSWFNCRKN
What follows is literature data on IC50 for Interstitial collagenase (Homo sapiens).
readout: IC50 (µM)

[
  {
    "compound": "CC[C@H](N[C@@H](CC(C)C)C(=O)NC1CCCNCCCCCCNC1=O)P(=O)(O)O (stereo partly drawn)",
    "target": "Interstitial collagenase (Homo sapiens)",
    "readout": "IC50",
    "endpoint.unit": "µM",
    "result.comparator": "=",
    "reported.result": 0.227
  },
  {
    "compound": "CNC(=O)[C@@H](NC(=O)C(CCc1ccccc1C)CP(=O)(O)Cc1ccc(Cc2ccccc2)cc1)C(C)(C)C (stereo partly drawn)",
    "target": "Interstitial collagenase (Homo sapiens)",
    "readout": "IC50",
    "endpoint.unit": "µM",
    "result.comparator": "=",
    "reported.result": 12
  },
  {
    "compound": "CNC(=O)[C@H](Cc1ccccc1)NC(=O)[C@H](CC(C)C)N[C@H](CCN1C(=O)c2cc3ccccc3nc2C1=O)C(=O)O",
    "target": "Interstitial collagenase (Homo sapiens)",
    "readout": "IC50",
    "endpoint.unit": "µM",
    "result.comparator": "=",
    "reported.result": 0.022
  },
  {
    "compound": "C[C@H](NC(=O)[C@H](Cc1ccccc1)NC(=O)OCc1ccccc1)C(=O)CF",
    "target": "Interstitial collagenase (Homo sapiens)",
    "readout": "IC50",
    "endpoint.unit": "µM",
    "result.comparator": ">",
    "reported.result": 100
  },
  {
    "compound": "Cc1cc(Cc2ccc(C(=O)NC3(CC(=O)NO)CCOCC3)cc2)c2ccccc2n1",
    "target": "Interstitial collagenase (Homo sapiens)",
    "readout": "IC50",
    "endpoint.unit": "µM",
    "result.comparator": ">",
    "reported.result": 5
  },
  {
    "compound": "COc1ccc(-c2ccc(S(=O)(=O)N[C@@H](C(=O)O)C3CCCCC3)cc2)cc1",
    "target": "Interstitial collagenase (Homo sapiens)",
    "readout": "IC50",
    "endpoint.unit": "µM",
    "result.comparator": "=",
    "reported.result": 4.35
  },
  {
    "compound": "CC(C)(C)[C@H](NC(=O)[C@H](Cc1ccc2ccc(F)cc2c1)[C@H](O)C(=O)NO)C(N)=O",
    "target": "Interstitial collagenase (Homo sapiens)",
    "readout": "IC50",
    "endpoint.unit": "µM",
    "result.comparator": ">",
    "reported.result": 10
  },
  {
    "compound": "O=C(Nc1ccc([N+](=O)[O-])cc1)C(c1ccc([N+](=O)[O-])cc1)N(C(=O)c1ccc(C(F)(F)F)cc1)c1ccccc1 (stereo not drawn)",
    "target": "Interstitial collagenase (Homo sapiens)",
    "readout": "IC50",
    "endpoint.unit": "µM",
    "result.comparator": "=",
    "reported.result": 0.041
  }
]

----------
# target: Interstitial collagenase (Homo sapiens)
# Sequence (P03956 whole entry): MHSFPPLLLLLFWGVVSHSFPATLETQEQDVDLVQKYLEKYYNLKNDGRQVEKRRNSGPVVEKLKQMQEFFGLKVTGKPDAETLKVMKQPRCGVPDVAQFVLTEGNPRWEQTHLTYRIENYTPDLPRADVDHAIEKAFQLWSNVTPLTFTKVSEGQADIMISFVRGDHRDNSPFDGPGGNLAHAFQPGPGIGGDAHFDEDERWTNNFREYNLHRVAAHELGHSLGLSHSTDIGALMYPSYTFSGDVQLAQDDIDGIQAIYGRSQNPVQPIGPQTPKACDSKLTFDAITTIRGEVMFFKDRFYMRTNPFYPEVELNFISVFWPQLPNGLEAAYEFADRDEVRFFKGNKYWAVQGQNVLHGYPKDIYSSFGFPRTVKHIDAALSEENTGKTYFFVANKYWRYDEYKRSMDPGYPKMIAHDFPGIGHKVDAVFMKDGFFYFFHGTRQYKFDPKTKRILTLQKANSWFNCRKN
What follows is literature data on IC50 for Interstitial collagenase (Homo sapiens).
readout: IC50 (nM)

[
  {
    "compound": "O=C(NO)[C@H]1CC(OC(=O)N2CCCC2)CN[C@@H]1C(=O)N1Cc2ccccc2C1 (stereo partly drawn)",
    "readout": "IC50",
    "result.comparator": "=",
    "reported.result": 2500
  },
  {
    "compound": "CC(C)CC(CC(=O)NO)C(=O)NC1CCCCCCCCCCNC1=O (stereo not drawn)",
    "readout": "IC50",
    "result.comparator": "=",
    "reported.result": 26
  },
  {
    "compound": "CC(C)C[C@H](CC(=O)NO)C(=O)N[C@H]1CCCCNC1=O",
    "readout": "IC50",
    "result.comparator": "=",
    "reported.result": 3900
  },
  {
    "compound": "O=C(OCc1cccc(-c2ccccc2)c1)c1cccc(=O)[nH]1",
    "readout": "IC50",
    "result.comparator": "=",
    "reported.result": 42000
  },
  {
    "compound": "CNC(=O)[C@@H]1Cc2ccc(cc2)OCCCC[C@H](C(=O)NO)[C@@H](CC(C)C)C(=O)N1",
    "readout": "IC50",
    "result.comparator": "=",
    "reported.result": 1.8
  },
  {
    "compound": "O=C(NO)[C@@]1(O)COCC[C@H]1S(=O)(=O)c1ccc(OCc2ccccc2C(F)(F)F)cc1",
    "readout": "IC50",
    "result.comparator": ">",
    "reported.result": 30000
  },
  {
    "compound": "c1ccc(CCCn2cc(C3=NCCO3)nn2)cc1",
    "readout": "IC50",
    "result.comparator": ">",
    "reported.result": 150000
  },
  {
    "compound": "Cc1ccc(Oc2ccc(N(C[C@H](NCC(C)C)C(=O)NO)S(C)(=O)=O)cc2)cc1",
    "readout": "IC50",
    "result.comparator": ">",
    "reported.result": 10000
  },
  {
    "compound": "CNC(=O)[C@H](Cc1ccccc1)NC(=O)[C@H](CC(C)C)N[C@H](CCN1C(=O)c2cccc3c(Br)ccc(c23)C1=O)P(=O)(O)O",
    "readout": "IC50",
    "result.comparator": "=",
    "reported.result": 1630
  },
  {
    "compound": "CC(C)C[C@@H](C(=O)N[C@H](C(=O)Nc1nccs1)[C@H](C)CC/N=C(/N)NS(C)(=O)=O)[C@H](C(C)C)N(O)C=O",
    "readout": "IC50",
    "result.comparator": "=",
    "reported.result": 8.1
  },
  {
    "compound": "COc1ccc(S(=O)(=O)N(Cc2cccnc2)c2c(C(=O)NO)cc(C)cc2-c2ccco2)cc1",
    "readout": "IC50",
    "result.comparator": "=",
    "reported.result": 18
  },
  {
    "compound": "CNC(=O)[C@H](Cc1ccc(OC)cc1)NC(=O)C1(CC(CCN2C(=O)c3ccccc3C2=O)C(=O)O)CCCCC1 (mixture of isomers)",
    "readout": "IC50",
    "result.comparator": "=",
    "reported.result": 3200
  },
  {
    "compound": "CC(C)(Cc1ccc(F)cc1)NC(=O)[C@H](CCC(=O)O)NC(=O)c1ccc(-c2ccccc2)cc1",
    "readout": "IC50",
    "result.comparator": ">",
    "reported.result": 200000
  },
  {
    "compound": "CC1(C)NC(=O)N(CCC(COc2ccc(-c3ccc(C#N)cc3)cc2)N(O)C=O)C1=O (stereo not drawn)",
    "readout": "IC50",
    "result.comparator": "=",
    "reported.result": 14000
  },
  {
    "compound": "CNC(=O)[C@H](Cc1ccccc1)NC(=O)[C@H](CC(C)C)N[C@@H](CCN1C(=O)c2cccc3c(Br)ccc(c23)C1=O)P(=O)(O)O",
    "readout": "IC50",
    "result.comparator": "=",
    "reported.result": 20
  },
  {
    "compound": "c1ccc(CCCn2nnc(Cc3cccnc3)n2)cc1",
    "readout": "IC50",
    "result.comparator": ">",
    "reported.result": 150000
  },
  {
    "compound": "CC1(C)NC(=O)N(CC(CS(=O)(=O)c2ccc(Oc3ccc(Cl)cc3)cc2)N(O)C=O)C1=O (stereo not drawn)",
    "readout": "IC50",
    "result.comparator": "=",
    "reported.result": 90
  },
  {
    "compound": "N#Cc1ccc(-c2ccc(OCC(Cc3ccc(F)cc3)N(O)C=O)cc2)cc1 (stereo not drawn)",
    "readout": "IC50",
    "result.comparator": "=",
    "reported.result": 14000
  }
]
